Hey, just so you know, these numbers are from ChEMBL document CHEMBL5038584.

system: BGC-823; test: Cytotoxicity against human BGC-823 cells measured after 48 hrs by MTT assay; type: functional, cell-based; details: BGC-823, 48 h
Could you please report measured IC50 for the items listed next?

// known answers, use as guide
Smi: COc1ccc(-c2oc3cc(OC)cc(OC)c3c(=O)c2OCCCCCN2C[C@H](O)[C@@H](O)[C@H](O)[C@H]2CO)cc1
Observation Type: IC50
Observed: > 10 µM
--
Smi: O=c1c(O)c(-c2ccc(O)cc2)oc2cc(O)cc(O)c12
Observation Type: IC50
Observed: > 10 µM
--
Smi: OC[C@H]1NC[C@H](O)[C@@H](O)[C@@H]1O
Observation Type: IC50
Observed: > 10 µM
--
Smi: COc1ccc(-c2oc3cc(OC)cc(OC)c3c(=O)c2OCCCCCCCCCCCN2C[C@H](O)[C@@H](O)[C@H](O)[C@H]2CO)cc1
Observation Type: IC50
Observed: 4.5 µM

// query Bench note: what IC50 did COc1ccc(-c2oc3cc(OC)cc(OC)c3c(=O)c2OCCCCCCCCN2C[C@H](O)[C@@H](O)[C@H](O)[C@H]2CO)cc1 show?
// result > 10 µM
